# assay_details: Phase solubility, shake-flask method with UV spectrophotometry
# Assay type: physicochemical
# condition_set: aqueous buffer (shake-flask), 37 °C, pH 2, aqueous buffer, thermodynamic from solid, pH 2.0, 310.15 K; read-out: Solubility in pure buffer
assay_metric: solubility at 3 days (µM)
State just the number; it will be interpreted in µM.

Memo: `CCOC(=O)c1c(CSc2ccccc2)n(C)c2cc(Br)c(O)c(CN(C)C)c12` , reported solubility at 3 days: 711

###

# assay_details: Phase solubility, shake-flask method with UV spectrophotometry
# Assay type: physicochemical
# condition_set: aqueous buffer (shake-flask), 37 °C, pH 2, aqueous with cosolvent or surfactant or cyclodextrin, thermodynamic from solid, Solubility SUMF·103, buffer pH 2.0, 7.0 w/v% F-127, 310.15 K; value is S×10^3; heading: Solubility SUMF·103
assay_metric: solubility at 3 days (mM)
State just the number; it will be interpreted in mM.

Memo: CCOC(=O)c1c(CSc2ccccc2)n(C)c2cc(Br)c(O)c(CN(C)C)c12 [UMF] , reported solubility at 3 days: 6.34

###

# assay_details: Phase solubility, shake-flask method with UV spectrophotometry
# Format: physicochemical
# condition_set: aqueous buffer (shake-flask), 37 °C, pH 7.4, aqueous with cosolvent or surfactant or cyclodextrin, thermodynamic from solid, buffer pH 7.4 +20% EtOH, 5.5 w/v% F-127, 310.15 K; value is S×10^4; read-out: Solubility SUMF·104
assay_metric: solubility at 3 days (µM)
State just the number; it will be interpreted in µM.

Memo: CCOC(=O)c1c(CSc2ccccc2)n(C)c2cc(Br)c(O)c(CN(C)C)c12 [UMF] , reported solubility at 3 days: 983

###

# assay_details: Phase solubility, shake-flask method with UV spectrophotometry
# Type: physicochemical
# condition_set: aqueous buffer (shake-flask), 37 °C, pH 7.4, aqueous with cosolvent or surfactant or cyclodextrin, thermodynamic from solid, buffer pH 7.4 +20% EtOH, 0 w/v% F-127, 310.15 K; value is S×10^4; read-out: Solubility SUMF·104
# Procedure: The solubility of UMF was measured in pure buffers pH 2.0 and pH 7.4, with the additions of 1.5 w/v%, 4.0 w/v%, 5.5 w/v%, 7.0 w/v% of F-127, and in all these solutions in the presence of 10% and 20% ethanol at 310.15 ± 0.1 K by the standard shake-flask method. The concentrations of F-127 were chosen purposely to avoid the formation of a gel (at approximately 20% w/w in water at 310.15 K). […]
assay_metric: solubility at 3 days (µM)
State just the number; it will be interpreted in µM.

Memo: CCOC(=O)c1c(CSc2ccccc2)n(C)c2cc(Br)c(O)c(CN(C)C)c12 [UMF] , reported solubility at 3 days: 30

###

# assay_details: Phase solubility, shake-flask method with UV spectrophotometry
# Type: physicochemical
# condition_set: aqueous buffer (shake-flask), 37 °C, pH 7.4, aqueous buffer, thermodynamic from solid, buffer pH 7.4, 0 w/v% F-127, 310.15 K; value is S×10^4; read-out: Solubility SUMF·104
assay_metric: solubility at 3 days (µM)
State just the number; it will be interpreted in µM.

Memo: CCOC(=O)c1c(CSc2ccccc2)n(C)c2cc(Br)c(O)c(CN(C)C)c12 [UMF] , reported solubility at 3 days: 16

###

# assay_details: Phase solubility, shake-flask method with UV spectrophotometry
# Assay type: physicochemical
# condition_set: aqueous buffer (shake-flask), 37 °C, pH 7.4, aqueous with cosolvent or surfactant or cyclodextrin, thermodynamic from solid, buffer pH 7.4, 1.5 w/v% F-127, 310.15 K; value is S×10^4; read-out: Solubility SUMF·104
# Experimental: The solubility of UMF was measured in pure buffers pH 2.0 and pH 7.4, with the additions of 1.5 w/v%, 4.0 w/v%, 5.5 w/v%, 7.0 w/v% of F-127, and in all these solutions in the presence of 10% and 20% ethanol at 310.15 ± 0.1 K by the standard shake-flask method. The concentrations of F-127 were chosen purposely to avoid the formation of a gel (at approximately 20% w/w in water at 310.15 K). […]
assay_metric: solubility at 3 days
Number plus unit, in that order.

Memo: CCOC(=O)c1c(CSc2ccccc2)n(C)c2cc(Br)c(O)c(CN(C)C)c12 [UMF] , reported solubility at 3 days: 174 µM
